# Read-out: Paternally Expressed 10 (PEG10), PEG10 (gene 23089)
# test.details: LTEA_HepaRG_PEG10: Life Technologies and Expression Analysis (LTEA) Assay for Paternally Expressed 10 (PEG10) using HepaRG (AID 2283520)
# applied.conditions: mRNA level, 48 h; actives raise or lower the signal
# Description: LTEA_HepaRG is a cell based, multiplexed-readout assay that uses HepaRG, a human liver cell line, with measurements taken at 48 hours after chemical dosing on a 96-well plate.LTEA_HepaRG_PEG10 is one of 102 assay component(s) measured in the LTEA HepaRG cell culture assay. It is a marker of Cell proliferation, survival, death.Data from the assay component LTEA_HepaRG_PEG10 was analyzed into 1 endpoint. […]
Calls of active or inactive are those of the source. How the source made its calls: active means hit-call score of the fitted dose curve at least 0.9, where 1 is the maximum; inactive means score below 0.9.
measurement.kind: outcome

compound=CC(C)NC(=O)N1CC(=O)N(c2cc(Cl)cc(Cl)c2)C1=O result=inactive
compound="Cc1cnc(C2=NC(C)(C(C)C)C(=O)N2)c(C(=O)O)c1 (stereo unspecified)" result=inactive
compound=N#CN=C1SCCN1Cc1ccc(Cl)nc1 result=inactive
compound=CCCCOCN(C(=O)CCl)c1c(CC)cccc1CC result=inactive
compound=C=C(C)CN(CC)c1c([N+](=O)[O-])cc(C(F)(F)F)cc1[N+](=O)[O-] result=inactive

Tell me the measured outcome of CS(=O)(=O)c1ccc(C(=O)C2C(=O)CCCC2=O)c([N+](=O)[O-])c1 , please.
inactive

====

# test.details: CCTE_Shafer_MEA_acute_burst_percentage_std: CCTE's Neural Acute Assay for Standard Deviation of Burst Percentage, Shafer Lab (AID 2284018);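 further: fitted in the negative direction so actives lower burst percentage SD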
The source made the active and inactive calls. How the source made its calls: active means hit-call score of the fitted dose curve at least 0.9, where 1 is the maximum; inactive means score below 0.9.
One label from this list, please: true (1) = active, false (0) = inactive

What outcome does the record of this test show for CCCCC(O)(Cn1cncn1)c1ccc(Cl)cc1Cl (stereo not given) ?
false (0)

For O=C(Nc1ccccc1-c1ccc(Cl)cc1)c1cccnc1Cl , which call appears in the assay record?
false (0)

// return assay outcome for COC(=O)N(C(=O)N1CO[C@@]2(C(=O)OC)Cc3cc(Cl)ccc3C2=N1)c1ccc(OC(F)(F)F)cc1
false (0)

Give the logged outcome of this assay for the following compound: CC1(C)CCC(=Cc2ccc(Cl)cc2)C1(O)Cn1cncn1 (stereo not given)
false (0)

Would you mind telling me which call this test gave Nc1c(Cl)c(F)nc(OCC(=O)O)c1Cl ?
false (0)

Status in this test for Cc1ccc(N=CN(C)C=Nc2ccc(C)cc2C)c(C)c1 ?
false (0)

Hey, what did the test say about CC(C)=CC1C(C(=O)OCc2coc(Cc3ccccc3)c2)C1(C)C (stereo not given) ?
true (1)

Hi, sorry to bother you, what did the test record for CCOP(=O)(OCC)Oc1nc(Cl)c(Cl)cc1Cl ?
true (1)

Dear colleague, could you share the recorded outcome for CCCC(=NOCC)C1=C(O)CC(CC(C)SCC)CC1=O (stereo not given) when you have a moment?
false (0)

Call for entry C=C(C)CN(CC)c1c([N+](=O)[O-])cc(C(F)(F)F)cc1[N+](=O)[O-] :
false (0)

Please let me know the test result on file for CC(C)N1C(=O)c2ccccc2NS1(=O)=O .
false (0)

What was the test verdict on CO/N=C(/C1=NOCCO1)c1ccccc1Oc1ncnc(Oc2ccccc2Cl)c1F ?
false (0)

So what was the verdict on CC1(C)C(C(=O)OC(C#N)c2cccc(Oc3ccccc3)c2)C1(C)C (stereo not given) in this test?
false (0)

Fill in: this test's call for COCC(=O)N(c1c(C)cccc1C)C(C)C(=O)OC (stereo not given) is ___
false (0)

Hello, I am checking results. What call was entered for CCOc1cc(C(C)(C)C)ccc1C1COC(c2c(F)cccc2F)=N1 (stereo not given) ?
false (0)

====

# test.details: TOX21_p53_BLA_p5_viability: Viability Assessment in the Tox21 HCT-116 p53 Agonism Beta-lactamase Assay, Phase 5 (AID 2283600)
Inconclusive results are not listed. Calls of active or inactive are those of the source. How the source made its calls: active means hit-call score of the fitted dose curve at least 0.9, where 1 is the maximum; inconclusive means response in the unintended direction; inactive means score below 0.9.
Form entry, call: pick from class 1 (active), class 0 (inactive)

Field: outcome | Entry: COP(=S)(OC)Oc1ccc([N+](=O)[O-])c(C)c1
class 0

# outcome recorded in this test, key = CS(=O)(=O)c1cc(C(F)(F)F)ccc1C(=O)c1cnoc1C1CC1
class 0

Kindly provide the recorded test outcome for the following molecule: COCC(C)N(C(=O)CCl)c1c(C)csc1C (centres undefined)
class 0

Check the results log: what was the call for COc1ccc(-c2ccccc2)cc1NNC(=O)OC(C)C ?
class 0

What did this assay record as the result for COC(=O)c1c(C(F)F)nc(C(F)(F)F)c(C2=NCCS2)c1CC(C)C ?
class 0

Outcome logged for OC(c1ccc(Cl)cc1)(c1ccc(Cl)cc1)C(Cl)(Cl)Cl in this assay:
class 1

Please let me know the test result on file for COC(=O)NC(=S)Nc1ccccc1NC(=S)NC(=O)OC .
class 0

What was the test verdict on Cn1c(-c2ccccc2)cc(-c2ccccc2)[n+]1C ?
class 0

Per the records of this test, what outcome belongs to Cc1ccc(N=CN(C)C=Nc2ccc(C)cc2C)c(C)c1 ?
class 0

====

# Read-out: MYC, MYC (gene 4609)
# test.details: LTEA_HepaRG_MYC: Life Technologies and Expression Analysis (LTEA) Assay for MYC using HepaRG (AID 2283518)
# applied.conditions: mRNA level, 48 h; actives raise or lower the signal
The source made the active and inactive calls. How the source made its calls: active means hit-call score of the fitted dose curve at least 0.9, where 1 is the maximum; inactive means score below 0.9.
measurement.kind: AC50

// known answers, use as guide
compound=COC(=O)NS(=O)(=O)c1ccc(N)cc1 measurement_kind=AC50 result=inactive
compound=O=C(O)c1c(Cl)ccc2cc(Cl)cnc12 measurement_kind=AC50 result=inactive
compound=CSC(=O)c1c(C(F)F)nc(C(F)(F)F)c(C(=O)SC)c1CC(C)C measurement_kind=AC50 result=inactive
compound=Nc1c(Cl)c(F)nc(OCC(=O)O)c1Cl measurement_kind=AC50 result=inactive
compound=O=C(Nc1ccccc1-c1ccc(Cl)cc1)c1cccnc1Cl measurement_kind=AC50 result=inactive
compound=N#Cc1c[nH]cc1-c1cccc2c1OC(F)(F)O2 measurement_kind=AC50 result="80.3 µM (active)"

Quick check: AC50 of CCOc1cc(C(C)(C)C)ccc1C1COC(c2c(F)cccc2F)=N1 (stereo not drawn) ?
33 µM (active)

Field request: AC50 | item: CC(C)N1C(=O)N(c2ccccc2)CSC1=NC(C)(C)C
72.2 µM (active)

Endpoint output: AC50 of O=P(O)(O)CCCl . Value?
inactive

Entry CC(C)NC(=O)N1CC(=O)N(c2cc(Cl)cc(Cl)c2)C1=O : reported AC50 = ?
13.2 µM (active)

Look up AC50 for this compound: N#Cc1c(Cl)cccc1Cl
inactive

# query: AC50 of entry CO/N=C(/C1=NOCCO1)c1ccccc1Oc1ncnc(Oc2ccccc2Cl)c1F
29.9 µM (active)

What value of measured AC50 is listed for CC(C)(C)C(=O)C(Oc1ccc(Cl)cc1)n1cncn1 (stereo not drawn) ?
inactive

// AC50 lookup, key: OC(c1ccc(Cl)cc1)(c1ccc(Cl)cc1)C(Cl)(Cl)Cl
73.7 µM (active)

What does the data say about its AC50? Entry: CC(C)=CC1C(C(=O)OCc2coc(Cc3ccccc3)c2)C1(C)C (stereo not drawn)
inactive

Query: AC50; subject: Nc1cnn(-c2ccccc2)c(=O)c1Cl
inactive

Need AC50 of CCNP(=S)(OC)O/C(C)=C/C(=O)OC(C)C (stereo not drawn) , thanks.
inactive

Form field: reported AC50 of Clc1nc(Cl)nc(Nc2ccccc2Cl)n1
inactive

Which value of AC50 has been reported for Clc1cccc(C(Cl)(Cl)Cl)n1 in the records?
inactive

Please report the recorded AC50 for CCSC(=O)N1CCCCCC1 .
inactive

Form field: reported AC50 of CNC(=O)Oc1cccc2ccccc12
inactive

// lookup AC50 for COc1ccc(-c2ccccc2)cc1NNC(=O)OC(C)C
inactive

====

# test.details: CCTE_Mundy_HCI_Cortical_NOG_NeuriteCount: CCTE's Neurite Outgrowth Assay in rat cortical cells for Neurite Count, Mundy Lab (AID 2284212);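 further: cells fixed about two days after chemical exposure began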
Activity calls are given as the source filed them. The calls were made as follows: active = hit-call score of the fitted dose curve at least 0.9, where 1 is the maximum; inactive = score below 0.9.
Pick from active, inactive when you respond.

Status in this test for CC(C)(C)C(=O)C(Oc1ccc(Cl)cc1)n1cncn1 (stereo unspecified) ?
inactive

GET /call?item= Cc1c(COC(=O)[C@@H]2[C@H](/C=C(\Cl)C(F)(F)F)C2(C)C)cccc1-c1ccccc1 returns the recorded outcome of this test.
active

Recorded call for CN/C(=N\[N+](=O)[O-])NCc1cnc(Cl)s1 ?
inactive

Per the records of this test, what outcome belongs to CS(=O)(=O)c1cc(C(F)(F)F)ccc1C(=O)c1cnoc1C1CC1 ?
inactive

Dear all, I need the recorded test outcome for CNC(=O)Oc1cccc2ccccc12 , thank you.
inactive

# fetch the recorded call for CCSC(=O)N1CCCCCC1 here
inactive

Hi, do you know how CCOP(=O)(OCC)Oc1nc(Cl)c(Cl)cc1Cl came out in this test?
inactive

Could you please tell me the result logged for C=C(C)CN(CC)c1c([N+](=O)[O-])cc(C(F)(F)F)cc1[N+](=O)[O-] in this assay?
active

Could you check what this test reported for O=C(Nc1ccccc1-c1ccc(Cl)cc1)c1cccnc1Cl ?
inactive

What is the recorded call for this compound in the test? COC(=O)N(C(=O)N1CO[C@@]2(C(=O)OC)Cc3cc(Cl)ccc3C2=N1)c1ccc(OC(F)(F)F)cc1
inactive

For COP(=O)(OC)O/C(C)=C/C(=O)N(C)C , what call appears in the results of this test?
inactive
